- Target or system: melanocortin 1 receptor (MC1R) (UniProt Q01726)
- Sequence (Q01726 whole entry): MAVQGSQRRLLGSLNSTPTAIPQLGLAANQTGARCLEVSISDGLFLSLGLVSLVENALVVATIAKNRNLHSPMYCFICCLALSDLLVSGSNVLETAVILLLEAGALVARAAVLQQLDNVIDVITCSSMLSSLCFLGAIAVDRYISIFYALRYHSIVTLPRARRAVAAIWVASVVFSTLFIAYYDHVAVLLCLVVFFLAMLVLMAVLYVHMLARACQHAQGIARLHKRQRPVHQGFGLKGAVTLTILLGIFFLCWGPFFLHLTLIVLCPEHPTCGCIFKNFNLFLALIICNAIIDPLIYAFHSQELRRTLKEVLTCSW
- Assay protocol: 125I-NDP-MSH competition, HEK293 membranes
[ ]: non-standard residue; d: D form. The star is where a group is joined. NH(CH2)3Ph = c1ccc(CCCN*)cc1
Observable: Ki (nM)
Please respond with the number in nM and leave the unit unwritten.

VPKGXRFHEMSYS (N-terminal acetyl (Ac); C-terminal amide; 3-benzothienyl-D-Alanine at 5; D-isomers at all residues except Gly 4) [peptide 859]	206
VPKGWRFREMSYS (N-terminal acetyl (Ac); C-terminal amide; D-isomers at all residues except Gly 4) [peptide 872]	13.5
VPKGWAFHEMSYS (N-terminal acetyl (Ac); C-terminal amide; D-isomers at all residues except Gly 4) [peptide 811]	13000
Ac-[dV][dP][dK]G[dW][dR][dF][dH][dS][dI][dI][dS][dS]-NH2 (SMILES CC[C@@H](C)[C@@H](NC(=O)[C@@H](CO)NC(=O)[C@@H](Cc1c[nH]cn1)NC(=O)[C@@H](Cc1ccccc1)NC(=O)[C@@H](CCCNC(=N)N)NC(=O)[C@@H](Cc1c[nH]c2ccccc12)NC(=O)CNC(=O)[C@@H](CCCCN)NC(=O)[C@H]1CCCN1C(=O)[C@H](NC(C)=O)C(C)C)C(=O)N[C@@H](C(=O)N[C@H](CO)C(=O)N[C@H](CO)C(N)=O)[C@H](C)CC) [peptide 886]	1
VPKGWRFHEXSYS (N-terminal acetyl (Ac); C-terminal amide; D-buthionine at 10; D-isomers at all residues except Gly 4) [peptide 878]	2.3
VPKGWRFHAMSYS (N-terminal acetyl (Ac); C-terminal amide; D-isomers at all residues except Gly 4) [peptide 808]	2.5
VPKGWRFAEMSYS (N-terminal acetyl (Ac); C-terminal amide; D-isomers at all residues except Gly 4) [peptide 809]	1200
VPKGWRFHEKSYS (N-terminal acetyl (Ac); C-terminal amide; D-isomers at all residues except Gly 4) [peptide 879]	832
H-[dV][dP][dK]G[dW][dR][dF][dH]-{NH(CH2)3Ph} (SMILES CC(C)[C@@H](N)C(=O)N1CCC[C@@H]1C(=O)N[C@H](CCCCN)C(=O)NCC(=O)N[C@H](Cc1c[nH]c2ccccc12)C(=O)N[C@H](CCCNC(=N)N)C(=O)N[C@H](Cc1ccccc1)C(=O)N[C@H](Cc1c[nH]cn1)C(=O)NCCCc1ccccc1) [peptide 847]	104
VPKGWRFHDMSYS (N-terminal acetyl (Ac); C-terminal amide; D-isomers at all residues except Gly 4) [peptide 875]	400

Q: Complete the entry with Ki for Ac-[dW][dR]F[dH]-{1,6‑diaminohexane-stearyl} [peptide 882]
Ans: 120

Q: Complete the entry with Ki for VPKGWRXHEXSYS (N-terminal acetyl (Ac); C-terminal amide; D-Cha at 7; D-buthionine at 10; D-isomers at all residues except Gly 4) [peptide 890]
Ans: 1.9

Q: Complete the entry with Ki for VPKGWRWHEMSYS (N-terminal acetyl (Ac); C-terminal amide; D-isomers at all residues except Gly 4) [peptide 870]
Ans: 2500
